target: SA AgrC-I (Staphylococcus aureus, UniProt O07911); assay: β-Lactamase assay, reporter strain RN10829 (P2-agrA:P3-blaZ) with pagrC-I; format: cell-based
Sequence (O07911 entry or part of it): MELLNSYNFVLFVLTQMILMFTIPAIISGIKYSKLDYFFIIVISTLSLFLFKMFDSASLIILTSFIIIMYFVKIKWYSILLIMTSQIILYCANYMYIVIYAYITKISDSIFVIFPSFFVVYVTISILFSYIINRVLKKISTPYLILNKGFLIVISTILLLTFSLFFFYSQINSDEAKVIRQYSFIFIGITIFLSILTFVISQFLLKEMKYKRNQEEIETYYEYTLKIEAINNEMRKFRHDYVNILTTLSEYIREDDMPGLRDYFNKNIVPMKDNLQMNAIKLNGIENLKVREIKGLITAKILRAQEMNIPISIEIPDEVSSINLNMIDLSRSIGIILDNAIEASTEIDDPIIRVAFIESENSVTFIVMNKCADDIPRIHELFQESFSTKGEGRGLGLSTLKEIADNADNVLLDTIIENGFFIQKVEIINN
pIC50: −log10 of the molar value. Positions of bridges follow the written chain, without caps; N, C: chain ends. Residues, ends and D or L forms follow the SMILES beside them.
Label rule met when pIC50 is at or above 7; otherwise label rule not met.

INSERT INTO assay_data (molecule, assigned_category) VALUES
  ('CC(C)C[C@@H]1NC(=O)[C@H](Cc2ccc(O)cc2)NC(=O)[C@H](CO)NC(=O)[C@H](C)NC(=O)[C@@H](NC(=O)[C@@H]2CCCN2C(=O)[C@H](CC(N)=O)NC(=O)[C@H](Cc2ccc(O)cc2)NC(=O)[C@H](CCCCN)NC(=O)[C@H](C)NC(=O)[C@H](C)NC(=O)[C@@H](N)CC(N)=O)CSC1=O [compound 7, S. epidermidis AIP-III] (H-NAAKYNPCASYL; thioester 8-C)', 'rule not met'),
  ('CC[C@H](C)[C@H](NC(=O)[C@@H](N)[C@@H](C)O)C(=O)N[C@@H](CO)C(=O)N[C@@H](CO)C(=O)N[C@H](C(=O)N[C@@H](CCCCN)C(=O)N1CCC[C@H]1C(=O)N[C@H]1CSC(=O)[C@H](C(C)C)NC(=O)[C@H](Cc2ccccc2)NC(=O)CNC(=O)[C@H]([C@@H](C)O)NC1=O)C(C)C [compound 18, S. cohnii AIP-I] (H-TISSVKPCTGFV; thioester 8-C)', 'rule not met'),
  ('CC(C)[C@H](NC(=O)[C@H](CC(N)=O)NC(=O)[C@H](Cc1ccc(O)cc1)NC(=O)[C@@H](N)CO)C(=O)N[C@H]1CSC(=O)[C@H](Cc2ccccc2)NC(=O)[C@H](Cc2ccc(O)cc2)NC(=O)CNC(=O)CNC1=O [compound 10, S. hominis AIP-I] (H-SYNVCGGYF; thioester 5-C; N-terminus assumed)', 'rule not met'),
  ('C[C@@H](O)[C@H](NC(=O)[C@H](CO)NC(=O)[C@@H](N)Cc1ccc(O)cc1)C(=O)N[C@H]1CSC(=O)[C@H](Cc2ccccc2)NC(=O)[C@H](Cc2ccc(O)cc2)NC(=O)[C@H](Cc2ccc(O)cc2)NC(=O)[C@H](CO)NC1=O [compound 20, S. caprae AIP-I] (H-YSTCSYYF; thioester 4-C)', 'rule met'),
  ('NCCCC[C@H](N)C(=O)N[C@@H](Cc1ccc(O)cc1)C(=O)N[C@@H](CC(N)=O)C(=O)N1CCC[C@H]1C(=O)N[C@H]1CSC(=O)[C@H](Cc2ccccc2)NC(=O)[C@H](Cc2ccc(O)cc2)NC(=O)CNC(=O)[C@H](Cc2c[nH]c3ccccc23)NC1=O [compound 34, S. simulans AIP-III] (H-KYNPCWGYF; thioester 5-C)', 'rule met'),
  ('NCCCC[C@H](N)C(=O)N[C@@H](Cc1ccc(O)cc1)C(=O)N[C@@H](Cc1ccc(O)cc1)C(=O)N1CCC[C@H]1C(=O)N[C@H]1CSC(=O)[C@H](Cc2ccccc2)NC(=O)[C@H](Cc2ccc(O)cc2)NC(=O)CNC(=O)[C@H](Cc2c[nH]c3ccccc23)NC1=O [compound 33, S. simulans AIP-II] (H-KYYPCWGYF; thioester 5-C)', 'rule met');
